attribute-measured: melting point

{"columns": ["item-smiles", "attribute-measured", "result"],
 "data": [
  ["COc1cc(NC(=O)c2cc3cc(F)ccc3n2Cc2cccc(F)c2)cnc1N1CCCC1", "melting point", "172 to 174 °C"],
  ["O=C1c2ccccc2C(=O)N1CCCCN1CCC(c2noc3cc(F)ccc23)CC1", "melting point", "144 to 146 °C"],
  ["Fc1ccc(Nc2ncnc3cc(-c4ccoc4)ccc23)cc1Cl", "melting point", "249 to 250 °C"],
  ["OCc1cccc(-n2cccc2)c1", "melting point", "64 to 67 °C"]
]}

* * *

{"columns": ["compound", "melting point"],
 "data": [
  ["COC(=O)C1COc2ccc(S)cc2C1 (stereo not drawn)", "83 to 84 °C"],
  ["Cc1c(CC(=O)O)c2cc(OCc3nc4ccccc4s3)ccc2n1Cc1ccc(Cl)cc1", "175 to 176 °C"],
  ["O=[N+]([O-])c1c(Br)c(Br)cc2c1OC(F)(F)C(F)(F)O2", "91 to 92 °C"]
]}

* * *

attribute-measured: melting point

{"columns": ["molecule", "result"],
 "data": [
  ["CC(=O)c1ccc(Nc2cc(C)nc(N)n2)cc1", "194 to 196 °C"],
  ["CCOC(=O)c1cn(C2COC2)c2cc(F)c(F)c(OCc3ccccc3)c2c1=O", "220 to 222 °C"],
  ["CCOC(=O)C(O)(Cn1cncn1)c1ccc(F)cc1 (stereo not drawn)", "142 to 144 °C"]
]}

* * *

Listing of entries alongside the reported melting point.

{"columns": ["compound", "melting point"],
 "data": [
  ["CSc1ccc([N+](=O)[O-])c(C#N)c1", "112 to 113 °C"],
  ["Cc1cc(Cn2c(O)nc3c(N)nc(C)c(C)c32)on1", "> 300 °C"],
  ["CCCCCCCCCCCCCCCCCC(=O)c1ccc(OC)c(C(=O)O)c1", "194 to 196 °C"],
  ["COc1ccc(Nc2ccc3c(n2)CC(C)(C)CC3=O)cc1", "149 to 150 °C"],
  ["CC(Oc1cc2sc(NC(=O)NCCN3CCOCC3)nc2cc1F)c1c(Cl)cccc1Cl (stereo not given)", "200 to 205 °C"],
  ["CCOc1ccc(S(=O)(=O)N(CC(=O)NN=C2C(=O)Nc3ccc([N+](=O)[O-])cc32)c2ccccc2)cc1", "252 to 253 °C"],
  ["O=C(O)CCN1CCN(c2ccc([N+](=O)[O-])cc2)CC1", "250 to 252 °C"],
  ["COc1ccc(CCc2ccc(C(F)(F)F)cc2)cc1", "80 °C"],
  ["CCCn1c(=O)c2[nH]c(-c3ccc(C#N)cc3)nc2n(C)c1=O", "314 to 318 °C"],
  ["NC(=O)Cc1ccc2[nH]cc(CCNC(=O)OCc3ccccc3)c2c1", "124 to 125 °C"]
]}

* * *

# melting point per entry
attribute-measured: melting point

{"columns": ["compound", "result"],
 "data": [
  ["CC(C)OP(=O)(Cc1c(C2CCCCC2)cc(O)cc1C1CCCCC1)OC(C)C", "143 °C"],
  ["CC(C)N(CCC(CCN(C(C)C)C(C)C)(C(N)=O)c1ccccc1)C(C)C", "102 to 103 °C"],
  ["CCOCCOC(=O)C1=C(C)NC(CO)=C(C(=O)OCC)C1c1cccc([N+](=O)[O-])c1 (configuration not stated)", "99 to 100 °C"],
  ["O=C(Nc1ccccc1)n1cc(F)c(NCc2ccccc2F)nc1=O", "154 to 157 °C"],
  ["CCOP(=O)(CCOc1ccc(C(=O)O)cc1)OCC", "86 to 88 °C"],
  ["CC(C)C(C(=O)O)n1nc(Br)c(Br)c1Br (configuration not stated)", "92 to 95 °C"],
  ["COc1cc2c(=O)c(C#N)c[nH]c2cc1[N+](=O)[O-]", "305 to 309 °C"],
  ["CSC(=C[N+](=O)[O-])NC(C)C(C)(C)C (configuration not stated)", "69 °C"],
  ["CC(C)(C)OC(=O)N[C@H]1CCN(C(=O)OCc2ccccc2)C1", "124 to 125 °C"],
  ["CC(C)S(=O)(=O)n1c(N)nc2ccc(C(=CBr)c3ccccc3)cc21", "180 to 182 °C"],
  ["CCN(CC)CCSC1=C(C#N)C(c2ccccc2)(c2cccnc2)C(=O)N1 (configuration not stated)", "133 °C"],
  ["C[C@]1(COc2ccc(N3CCN(Cc4ccc(OC(F)(F)F)cc4)CC3)cc2)Cn2cc([N+](=O)[O-])nc2O1", "214 to 217 °C"],
  ["COc1cc(C(=O)NCCc2ccc(F)cc2)cnc1C(=O)O", "110 °C"],
  ["COc1cccc2c1C(=O)c1c(O)cc(CO)cc1C2=O", "215 to 216 °C"],
  ["CC(=O)N1N=C(c2ccc([N+](=O)[O-])cc2)c2ccc(Cl)cc2CC1C (configuration not stated)", "174 to 175 °C"],
  ["N#CC1=C(C#N)SC(c2ccccc2)CS1 (configuration not stated)", "122 to 124 °C"],
  ["Cc1nc2cc3c(cc2c(=O)[nH]1)C(N(C)c1ccc(C(=O)NC(CCc2nnn(CC(=O)O)n2)C(=O)O)c(F)c1)CC3 (mixture of isomers)", "196 to 199 °C"]
]}
